- tested-target: T1, soluble Homo sapiens CD131 comprising a C-terminal 6xHis tag (human, UniProt P32927 17-438)
- T1 construct: truncated after Ser438, C-terminal 6xHis; also called shCD131; shβc
- T1 sequence: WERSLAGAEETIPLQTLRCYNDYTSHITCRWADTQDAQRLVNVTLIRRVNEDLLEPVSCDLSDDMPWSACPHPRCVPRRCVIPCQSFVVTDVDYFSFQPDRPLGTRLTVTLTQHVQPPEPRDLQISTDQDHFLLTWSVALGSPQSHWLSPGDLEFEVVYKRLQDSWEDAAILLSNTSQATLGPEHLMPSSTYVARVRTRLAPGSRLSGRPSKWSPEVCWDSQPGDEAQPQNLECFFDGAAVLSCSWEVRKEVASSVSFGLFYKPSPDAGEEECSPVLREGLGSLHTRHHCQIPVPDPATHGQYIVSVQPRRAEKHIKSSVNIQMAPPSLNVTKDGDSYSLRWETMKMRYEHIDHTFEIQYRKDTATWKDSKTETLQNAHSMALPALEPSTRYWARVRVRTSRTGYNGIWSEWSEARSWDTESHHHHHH
- procedure-text: SPR, Fab over captured shCD131
measure-name: koff (s⁻¹)

{"binder": "9A2-VR24.27 Fab (Fab, V domains shown, recombinant Fab) VH: EVQLLESGGGLVQPGGSLRLSCAASGFTFPWYRVHWVRQAPGKGLEWVSSIRSSGGFPYYHQKVKGRFTISRDNSKNTLYLQMNSLRAEDTAVYYCARFYDSFFDIWGQGTMVTVSS VL: DIQMTQSPSSVSASVGDRVTITCRASQGISSWLAWYQQKPGKAPKLLIYAASSLQSGVPSRFSGSGSGTDFTLTISSLQPEDFATYYCQQANSFPITFGQGTRLEIKR", "measure-name": "koff", "measurement": 0.000527}

From: patent US20190062438A1
